- Test summary: TLR3 IRF3 reporter activation blockers – cell-based, poly I:C stimulus, luciferase, 10K MLSCN set, primary screen (AID 602277)
- Assay context: HEK293-TLR3 RL24 IRF3 luciferase reporter, at 10 µM, hits give high values
Returns condition met if the recorded inhibition is greater than or equal to 20%, and condition not met otherwise.

Completed entries (count: 6):
[
  {
    "Molecule": "CCn1c(SCC(=O)c2ccc(OC)cc2)nnc1C(C)NC(=O)c1ccc(OC)cc1 (configuration not stated)",
    "Label": "condition not met"
  },
  {
    "Molecule": "CCOC(=O)C1=C(C)N(C)C(=O)NC1c1cccc(O)c1 (configuration not stated)",
    "Label": "condition not met"
  },
  {
    "Molecule": "Cc1ccc(Nc2nc(CSc3nnc(-c4cccs4)o3)cs2)cc1",
    "Label": "condition not met"
  },
  {
    "Molecule": "Cc1nc(N)[nH]c(=O)c1CCC(=O)OCC(C)C",
    "Label": "condition met"
  },
  {
    "Molecule": "COCC(C)NC(=O)NC(=O)c1ccc(Cl)cc1 (configuration not stated)",
    "Label": "condition not met"
  },
  {
    "Molecule": "CCc1ccc(N2CC34C=CC(O3)C(C(=O)OC)C4C2=O)cc1 (configuration not stated)",
    "Label": "condition met"
  }
]

In: Assess whether reported inhibition for CCOC(=O)C1=C(C)NC(C)=C(C(=O)OCC)C1c1cc(N)ccc1OC(F)F sits at 20% or higher.
Out: condition met

In: Assess whether reported inhibition for Cc1ccc(C2=Nc3ccccc3NC(C)(c3ccc(C)o3)C2)o1 (configuration not stated) sits at 20% or higher.
Out: condition not met

In: Assess whether reported inhibition for O=C(CN1CCN(c2nc(-c3ccc(F)cc3)cs2)CC1)NCc1ccc2c(c1)OCO2 sits at 20% or higher.
Out: condition not met

In: Assess whether reported inhibition for OC(CN1CCN(c2ccccn2)CC1)Cn1c2ccccc2c2ccccc21 (configuration not stated) sits at 20% or higher.
Out: condition met

In: Assess whether reported inhibition for Cc1c(NC(=O)c2ccc(Br)o2)c(=O)n(-c2ccccc2)n1C sits at 20% or higher.
Out: condition met

In: Assess whether reported inhibition for CN(C)S(=O)(=O)c1ccc(C(=O)NCc2cccs2)cc1 sits at 20% or higher.
Out: condition not met

In: Assess whether reported inhibition for Cc1c(C(=O)NC2CCCc3ccccc32)oc2ccc(S(=O)(=O)N3CCOCC3)cc12 (configuration not stated) sits at 20% or higher.
Out: condition not met

In: Assess whether reported inhibition for Cc1cccc(-c2nnn(CC/C(N)=N/O)n2)c1 sits at 20% or higher.
Out: condition not met

In: Assess whether reported inhibition for Cc1c(C(=O)N2CCN(c3ccccc3)CC2)sc2ncnc(N3CCN(c4ccccc4)CC3)c12 sits at 20% or higher.
Out: condition not met

In: Assess whether reported inhibition for Cc1ccc(N2C(=O)c3ccccc3C2Nc2cccnc2)nc1 (configuration not stated) sits at 20% or higher.
Out: condition not met

----------
- Test summary: inhibitors of TNFa-induced NFkB p65 translocation, primary screen, imaging, HUVEC, MLSMR starter and 10KST1 sets (AID 438);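 also: compound added about 3h40 before a 20 min TNFalpha stimulation; signal is the nuclear over cytoplasmic p65 intensity ratio per well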
- Assay context: HUVEC TNFa-induced p65 nuclear translocation; at 2 µM, hits give high values, 0% TNFa-plus-vehicle, 100% no-TNFa wells
The source made the active and inactive calls.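 Rule for the calls: active = inhibition above 20% together with a positive visual image hit; inconclusive = visual image hit but inhibition not above 20%; inactive = no visual image hit.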
In this section we review reported inhibition values for a set of molecules.

The cases that follow already have their inhibition on record.
[
  {
    "Substance smiles": "CC(=O)c1ccccc1OCCn1nnc(-c2ccc(C)cc2)n1",
    "Property": "inhibition",
    "Reported": "-13.7% (inactive)"
  },
  {
    "Substance smiles": "CN(C)c1nc(Oc2ccc(=O)n(C)n2)nc(N2CCOCC2)n1",
    "Property": "inhibition",
    "Reported": "0.5% (inactive)"
  },
  {
    "Substance smiles": "CCn1cc(C(=O)N=c2sc3ccccc3n2C)c(=O)c2ccc(C)nc21",
    "Property": "inhibition",
    "Reported": "3.7% (inactive)"
  }
]

Memo: CCOCC(=O)Nc1nc2c(s1)C(=O)CC(C)(C)C2 , reported inhibition: 0.6% (inactive)

Memo: Cc1cc(C(=O)N2CCN(C/C=C/c3ccccc3)CC2)no1 , reported inhibition: 8.7% (inactive)

Memo: COc1ccc(C2(C(=O)N3CCCC3)CCOCC2)cc1OC , reported inhibition: 5.5% (inactive)

Memo: O=C(O)c1ccc(COc2c(F)c(F)cc(F)c2F)cc1 , reported inhibition: -0.8% (inactive)
